Record: IC50 reported on UniProt:O00329.
Sequence (O00329 whole entry, looked up): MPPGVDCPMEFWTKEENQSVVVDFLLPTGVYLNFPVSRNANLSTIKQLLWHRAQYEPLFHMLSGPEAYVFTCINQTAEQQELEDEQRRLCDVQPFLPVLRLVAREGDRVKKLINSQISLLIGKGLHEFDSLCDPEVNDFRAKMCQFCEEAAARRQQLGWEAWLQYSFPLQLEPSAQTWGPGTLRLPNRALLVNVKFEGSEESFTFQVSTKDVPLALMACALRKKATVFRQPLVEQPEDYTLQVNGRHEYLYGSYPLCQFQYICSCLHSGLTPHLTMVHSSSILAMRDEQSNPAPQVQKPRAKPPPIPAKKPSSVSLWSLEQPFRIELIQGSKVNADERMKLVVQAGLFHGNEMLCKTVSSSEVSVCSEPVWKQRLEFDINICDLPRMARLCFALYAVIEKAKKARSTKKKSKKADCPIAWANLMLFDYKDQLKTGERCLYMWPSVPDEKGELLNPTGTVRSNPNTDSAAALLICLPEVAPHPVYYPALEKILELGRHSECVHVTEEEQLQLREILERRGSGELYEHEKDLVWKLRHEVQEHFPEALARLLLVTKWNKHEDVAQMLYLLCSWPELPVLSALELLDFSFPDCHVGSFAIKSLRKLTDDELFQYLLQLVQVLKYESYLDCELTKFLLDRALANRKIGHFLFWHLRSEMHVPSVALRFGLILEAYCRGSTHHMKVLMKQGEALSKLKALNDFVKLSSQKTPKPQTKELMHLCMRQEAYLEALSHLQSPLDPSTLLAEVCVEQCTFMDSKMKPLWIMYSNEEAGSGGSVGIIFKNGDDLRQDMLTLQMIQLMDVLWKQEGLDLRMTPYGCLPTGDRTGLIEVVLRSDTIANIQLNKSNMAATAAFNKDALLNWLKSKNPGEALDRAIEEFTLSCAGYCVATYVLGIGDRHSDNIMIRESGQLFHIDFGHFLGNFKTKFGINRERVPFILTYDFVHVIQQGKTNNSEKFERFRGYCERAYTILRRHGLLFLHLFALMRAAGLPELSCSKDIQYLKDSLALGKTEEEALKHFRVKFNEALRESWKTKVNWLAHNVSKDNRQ
Answers are plain numbers, in nM.

IC50 recorded for this molecule, CCn1ncc(-c2nc3c(O[C@H]4CCN(c5ncnc6sc(C)c(C)c56)C4)ncnc3n2C)c1C , is 19

IC50 recorded for this molecule, CCn1ncc(-c2nc3c(OC4CCN(C(=O)c5ccc6ccccc6c5)C4)ncnc3n2C)c1C (centres undefined) , is 28

IC50 recorded for this molecule, CCn1c(-c2cnc(C)nc2)nc2c(O[C@@H]3CN(C(=O)C4CC4)C[C@H]3OC)ncnc21 , is 41

IC50 recorded for this molecule, CCn1c(-c2cnc(C)nc2)nc2c(O[C@H]3CCN(C(=O)C4CNC4)C3)ncnc21 , is 70

IC50 recorded for this molecule, CCC(=O)N1CC[C@H](Oc2ncnc3c2nc(Oc2cccc(C)c2C)n3C)C1 , is 2400

I need IC50 for every entry listed below, if you could help.
1. CCn1ncc(-c2nc3c(O[C@H]4CCN(C(=O)Oc5ccccc5)C4)ncnc3n2C)c1C
2. CCn1ncc(-c2nc3c(O[C@@H]4CCN(C(=O)C5CCOCC5)C4)ncnc3n2C)c1C
3. CCn1ncc(-c2nc3c(O[C@H]4CCN(C(=O)C5CCCO5)C4)ncnc3n2C)c1C (some centres undefined)
4. CCn1ncc(-c2nc3c(CC4CCN(C(=O)OC(C)(C)C)C4)ncnc3n2C)c1C (centres undefined)

### Response
90
1600
12
560

###

# Experimental System: PIK3CD (Human)
Doc: threshold 20 nM (exclusive). Items with IC50 beneath it return Met; others return Not met.

### Prompt In the record for Cc1ncc(-c2nc3c(O[C@H]4CCN(C(=O)OC(C)(C)C)C4)ncnc3n2C)cn1 , is IC50 less than 20 nM?
### Response Not met

### Prompt In the record for CCn1c(-c2cnc(C)nc2)nc2c(O[C@H]3CCN(C(=O)C4CC(C)C4)C3)ncnc21 (some centres undefined) , is IC50 less than 20 nM?
### Response Met

### Prompt In the record for CCn1ncc(-c2nc3c(O[C@H]4CCN(C(=O)c5cnn(C(C)C)c5)C4)ncnc3n2C)c1C , is IC50 less than 20 nM?
### Response Not met

---
### Prompt In the record for CCn1ncc(-c2nc3c(O[C@H]4CCN(CC5CCCCC5)C4)ncnc3n2C)c1C , is IC50 less than 20 nM?
### Response Not met

### Prompt In the record for CCn1ncc(-c2nc3c(OC4CCN(C(=O)c5cnco5)C4)ncnc3n2C)c1C (centres undefined) , is IC50 less than 20 nM?
### Response Met

### Prompt In the record for CCn1ncc(-c2nc3c(O[C@H]4CCN(C(=O)c5cnoc5C(C)C)C4)ncnc3n2C)c1C , is IC50 less than 20 nM?
### Response Not met

### Prompt In the record for Cc1nn(C)cc1-c1nc2c(O[C@H]3CCN(C(=O)OC(C)(C)C)C3)ncnc2n1C , is IC50 less than 20 nM?
### Response Not met

### Prompt In the record for CCn1c(-c2ccc(OC)nc2)nc2c(O[C@H]3CCN(C(=O)C(C)C)C3)ncnc21 , is IC50 less than 20 nM?
### Response Met

### Prompt In the record for CCn1ncc(-c2nc3c(O[C@H]4CCN(C(=O)c5cccnc5)C4)ncnc3n2C)c1C , is IC50 less than 20 nM?
### Response Met

### Prompt In the record for CCn1c(-c2ccc(OC)cn2)nc2c(O[C@H]3CCN(C(=O)C4CC4)C3)ncnc21 , is IC50 less than 20 nM?
### Response Not met
